Listing: T/C of selected compounds
# Test system: CD8F1 mice, subcutaneous mammary adenocarcinoma, T/C%
# ASSAY_NAME: NCI In Vivo Anticancer Drug Screen. Data for tumor model Mammary Adenocarcinoma CD8F1 (subcutaneous) in CD8F1
# PARTICULARS: endpoint: median tumor weight (est.); dose: 3.0 mg/kg/injection; schedule: Q07DX005 (ip); vehicle: saline; higher = larger tumour
Results filed as inconclusive are left out.

# COMPOUND, T/C
measured = [
    ("Nc1ncn(C2CC(O)C(CO)O2)c(=O)n1 (centres undefined)", "10 % of control"),
    ("COc1cccc2c1C(=O)c1c(O)c3c(c(O)c1C2=O)C[C@@](O)(C(O)CO)C[C@@H]3OC1CC(N)C(O)C(C)O1 (some centres undefined)", "77 % of control"),
    ("NC(=O)c1ccc[n+](Cc2c(Cl)cccc2Cl)c1", "171 % of control"),
    ("O=C1N[C@@H]([C@H]2CC[C@H](Cl)CN2)C(=O)N[C@H]1[C@H]1CC[C@H](Cl)CN1", "11 % of control"),
]
